Documented TGI across a set of compounds
Tested on: SR leukemia
experimentalDetails: NCI tumour cell line growth inhibition, 48 h
quantityKind: TGI

| compound | result |
| --- | --- |
| CCP(=O)(CC)C(Cl)Cl | > 100 µM |
| CCOC(=O)c1c(N=P(c2ccccc2)(c2ccccc2)c2ccccc2)nnc(-c2ccccc2)c1-c1ccccc1 | > 100 µM |
| [C](#Cc1ccccc1)[Hg][C]#Cc1ccccc1 | > 100 µM |
| Cc1ccc2c(c1)C(=O)c1nc(C)ccc1C2=O | > 100 µM |
| CN(C(=O)C12C3C4C5C3C1(C(=O)C13C6C7C8C6C1C8C73)C5C42)C(C)(C)C (stereo not drawn) | > 50 µM |
| Nc1[nH]nc(Nc2ccc(Cl)cc2)c1P(=O)(c1ccccc1)c1ccccc1 | > 100 µM |
| O=C(NCCN1CCOCC1)c1cn2c(ccc3sc4ccccc4c(=O)c32)n1 | > 100 µM |
| O=C(O)C(O)C(O)C(=O)O (stereo not drawn) | > 100 µM |

* * *

Documented TGI across a set of compounds
Test system: A498 renal
experimentalDetails: NCI tumour cell line growth inhibition, 48 h

| compound | TGI |
| --- | --- |
| C[C@@H]1C[C@H](C)CN(S(=O)(=O)c2ccc3c(NO)c4ccc(S(=O)(=O)N5C[C@H](C)C[C@H](C)C5)cc4c(N=O)c3c2)C1 | > 1 µM |
| Cc1ccc(NC(=O)CCc2nc(N)nc(N)c2-c2ccccc2)cc1C | > 100 µM |
| COC(=O)CCC1=C(CC(=O)OC)C(C)(OC)N=C1NC(=O)OCc1ccccc1 (stereo not drawn) | > 100 µM |

* * *

Test system: TK-10 renal
experimentalDetails: NCI tumour cell line growth inhibition, 48 h

| compound | TGI |
| --- | --- |
| CN(CCCCCl)P(=O)(OCCS(=O)(=O)CC(NC(=O)CCC(N)C(=O)O)C(=O)NC(C(=O)O)c1ccccc1)OCC1OC(n2ccc(N)nc2=O)C(F)(F)C1O (stereo not drawn) | > 100 µM |
| CN(C)CCNC(=O)c1ccc(NCCCN(C)CCCNc2ccc(C(=O)NCCN(C)C)c3[nH]c4ccccc4c(=O)c23)c2c(=O)c3ccccc3[nH]c12 | 1.98 µM |
| O=c1cc(CO)oc2c3c(cc(O)c12)OCC(COC1OC(CO)C(O)C(O)C1O)=CC3 (stereo not drawn) | > 100 µM |
| COc1cc2nc(SCc3cc(OC)c(OC)c(OC)c3)n(Cc3ccccc3)c(=O)c2cc1OC | 32.4 µM |
| O=C(/C=C/c1ccccc1)CSc1ncn[nH]1 | > 100 µM |
| CCc1ccc(NC(=O)NC(=O)c2ccccc2[N+](=O)[O-])cc1Oc1ncc(Cl)cn1 | > 100 µM |
| Cc1ccc(NC(=O)CCc2nc(N)nc(N)c2-c2ccccc2)cc1C | > 100 µM |
| NC(=O)N/N=C(/CC1C(=O)Oc2ccccc21)c1ccccc1O (stereo not drawn) | > 100 µM |
| CC(=O)OC12C3C4C1C1C2C3C41OC(C)=O (stereo not drawn) | > 100 µM |
| C[C@@H]1C[C@H](C)CN(S(=O)(=O)c2ccc3c(NO)c4ccc(S(=O)(=O)N5C[C@H](C)C[C@H](C)C5)cc4c(N=O)c3c2)C1 | 0.321 µM |
| CC(=O)c1c(C)nc(SSc2nc(C)c(C(C)=O)c(-c3ccc(Cl)cc3)c2C#N)c(C#N)c1-c1ccc(Cl)cc1 | > 150 µg/mL |
| CN(C)c1ccc(/C=C2\N=C(NNc3ccccc3)NC2=O)cc1 | 67.2 µM |
| COc1cc(F)c(F)c(Nc2ccc(I)cc2F)c1NS(=O)(=O)C1(C[C@H](O)CO)CC1 | > 10 µM |
| Cc1ccc(S(=O)(=O)OC2C(O)C(O)OC2C(c2cc(O)c3c(c2O)C(=O)c2ccccc2C3=O)c2cc(O)c3c(c2O)C(=O)c2ccccc2C3=O)cc1 (stereo not drawn) | > 10 µM |
| COc1ccc2c(=O)cc(-c3ccccc3)[nH]c2c1 | > 100 µM |
| c1ccc2c(c1)c1c(n2CCOCCN2CCCC2)CCCC1 | 37 µM |
| NC(=S)/N=C(/c1nc2ccc(Cl)cc2[nH]c1=O)C(O)c1ccccc1Cl (stereo not drawn) | > 100 µM |
| CC(C)CCC[C@@H](C)[C@H]1CC[C@H]2[C@@H]3CC[C@H]4C[C@@H](CCC=C(c5cc(Cl)c(O)c(C(=O)O)c5)c5cc(Cl)c(O)c(C(=O)O)c5)CC[C@]4(C)[C@H]3CC[C@]12C | > 100 µM |
| C=C1C(=O)O[C@H]2C[C@@]3(COC(C)=O)C=COC=C(COC(=O)C(C)C)C3CC12 (stereo partly drawn) | > 100 µM |
| O=C(N/N=C/c1cc(Cl)cc(Cl)c1[O-])c1ccccc1O.O=C(N/N=C/c1cc(Cl)cc(Cl)c1[O-])c1ccccc1O.[Co+2] | 12 µM |
| O=C(O)CCS/C(=C\C(SCCC(=O)O)c1ccc(Cl)cc1)c1ccc(Cl)cc1 (stereo not drawn) | > 100 µM |
| C#Cc1cccc(N2C(=O)c3c(c(-c4ccccc4)c(-c4ccc(Cc5ccc(-c6c(-c7ccccc7)c7c(c(-c8ccccc8)c6-c6ccccc6)C(=O)N(c6cccc(C#C)c6)C7=O)cc5)cc4)c(-c4ccccc4)c3-c3ccccc3)C2=O)c1 | 53.3 µM |
| N#Cc1ccccc1C(Cl)(Cl)c1cnccn1 | > 100 µM |

* * *

Test system: SNB-75 CNS
experimentalDetails: NCI tumour cell line growth inhibition, 48 h
Documented TGI across a set of compounds

| compound | TGI |
| --- | --- |
| Cn1c(C(=O)c2ccncc2)cc2ccccc21 | > 100 µM |
| C#C/C=C\CCCC/C=C\C#CC#CCCCC#CC#C[C@H](COS(=O)(=O)O)OS(=O)(=O)O | > 100 µM |
| Cc1ccc(NC(=O)CCc2nc(N)nc(N)c2-c2ccccc2)cc1C | > 100 µM |
| CSc1ccc(-c2cc(-c3nc4ccccc4[nH]3)no2)cc1 | > 100 µM |
| CCOC(=O)c1sc(-c2ccc(OS(=O)(=O)c3ccccc3[N+](=O)[O-])c(C=O)c2)nc1C | 8.44 µM |
| c1ccc(C(NCC2CCO2)(c2ccccc2)c2ccccc2)cc1 (stereo not given) | 28.8 µM |
| COc1cc2c(c(OC)c1OC)-c1ncc3c(OC)c(OC)c(OC)cc3c1C2 | > 100 µM |
| O=C(/C=C/c1cccc(Oc2ccccc2)c1)NCc1ccc(C(=O)NCc2ccccc2)cc1 | 53.3 µM |
| CC1=NC2=Nc3nc(C)cc[n+]3CN2C=C1 | > 100 µM |
| C=CCC1CC(n2cc(C)c(=O)[nH]c2=O)OC1CO[Si](C)(C)C(C)(C)C (stereo not given) | 25.4 µM |

* * *

Test system: MDA-N
experimentalDetails: NCI tumour cell line growth inhibition, 48 h
quantityKind: TGI

| compound | tgt | quantityKind | result |
| --- | --- | --- | --- |
| O=C(O)CCC(=O)c1ccc2c(c1)C(C(=O)O)CC2 (configuration not stated) | MDA-N | TGI | > 100 µM |
| CN(Cc1cnc2nc(N)nc(N)c2n1)c1ccc(C(=O)N[C@@H](CCC(=O)O)C(=O)O)cc1 | MDA-N | TGI | > 250 µM |
| Nc1[nH]nc(Nc2ccc(Cl)cc2)c1P(=O)(c1ccccc1)c1ccccc1 | MDA-N | TGI | 47.4 µM |
| COc1cc(C2SCCCCCCCCCCSC(c3ccc(O)c(OC)c3)SCCCCCCCCCCS2)ccc1O (configuration not stated) | MDA-N | TGI | > 100 µM |
| Cc1cnc2sn(-c3ccc([N+](=O)[O-])cc3)c(=O)c2c1 | MDA-N | TGI | > 100 µM |
| COc1cc2c(cc1OC)C(=O)N(c1ccc(O)cc1)C2=O | MDA-N | TGI | > 100 µM |
| Cc1ccc(SC2C(=O)C3CC(OCc4ccccc4)C2(C)C3(C)C)cc1 (configuration not stated) | MDA-N | TGI | > 100 µM |

* * *

System: HCT-116 colon
experimentalDetails: NCI tumour cell line growth inhibition, 48 h

| molecule | TGI |
| --- | --- |
| CCNc1cc(-c2cccc(OC(F)(F)F)c2)nc2ccc(N3CCCC3)cc12 | 3.43 µM |
| O=C(O)CCS/C(=C\C(SCCC(=O)O)c1ccc(Cl)cc1)c1ccc(Cl)cc1 (stereo not drawn) | 57.5 µM |
| O=C1c2ccccc2C(=O)c2cc(N=Nc3c(O)ccc4ccccc34)ccc21 | > 100 µM |
| O=C(O)c1ccc(NCn2nc(-c3ccccc3O)oc2=S)cc1 | 57.3 µM |
| COc1cccc(/C(C#N)=C/c2nc3c(N4CCOCC4)nc(Cl)nc3n2C)c1 | 0.433 µM |
| NC(=O)N/N=C(/CC1C(=O)Oc2ccccc21)c1ccccc1O (stereo not drawn) | > 100 µM |
| O=C(/C=C/c1ccccc1)CSc1ncn[nH]1 | > 100 µM |
| CCCCCCCCCCCCCCCCCC1=NC(C)(C)CN1CC(C)O (stereo not drawn) | 5.86 µM |
| COc1ccc(N=NC(C(=O)c2ccccc2)C(=O)c2ccccc2)cc1 | 38.8 µM |
| Cc1ccc(SC2C(=O)C3CC(OCc4ccccc4)C2(C)C3(C)C)cc1 (stereo not drawn) | > 100 µM |
| C=CCC1CC(n2cc(C)c(=O)[nH]c2=O)OC1CO[Si](C)(C)C(C)(C)C (stereo not drawn) | 24.6 µM |
| CCOC(=O)C1=C(O)C2C3CC4C2C(O)=C(C(=O)OCC)C2C1C3C42 (stereo not drawn) | > 100 µM |
| O=[N+]([O-])c1cc(Cl)c2[nH]c3c(Cl)cc([N+](=O)[O-])cc3c2c1 | 7.12 µM |
| COC(=O)C1Cc2cc3c(cc2C1=O)CCCC3 (stereo not drawn) | > 100 µM |
| COc1cc(C(C)O)c(S(=O)(=O)CC(C)O)nn1 (stereo not drawn) | > 100 µM |
| COc1ccc(/C=C/C(=O)/C=C/c2cc3ccccc3[nH]c2=O)cc1 | 3.24 µM |
| COc1cc2nc(SCc3cc(OC)c(OC)c(OC)c3)n(Cc3ccccc3)c(=O)c2cc1OC | > 100 µM |
| O=CNNC(=O)Nc1cccc2ccccc12 | > 100 µM |
| Cc1nc(C)c(N2CCN(S(=O)(=O)N(Cc3ccccc3)Cc3ccccc3)CC2)c(=O)[nH]1 | > 100 µM |
| CCOC(=O)c1[nH]c(Br)c(-c2ccc(OC)c(OC)c2)c1Br | 13.7 µM |
| CC1/C=C/[C@@]2(C)CCC(C(C)(C)O)C2C(O)C[C@](C)(O)/C=C/C1 (stereo partly drawn) | > 100 µM |
| C#C/C=C\CCCC/C=C\C#CC#CCCCC#CC#C[C@H](COS(=O)(=O)O)OS(=O)(=O)O | > 100 µM |
| Cc1c2c3ccccc3nc-2n(C)c2ccccc12 | > 100 µM |
| CN1C/C(=C\c2cccs2)C(O)/C(=C/c2cccs2)C1 (stereo not drawn) | > 100 µM |
| O=c1/c(=C/c2ccccc2[N+](=O)[O-])sc2nc3ccccc3n12 | > 46.4 µM |
| Cc1nn[n-]n1.N.N.N.N.N.[Cl-].[Co+3] | > 100 µM |
| CC(C)(C)OC(=O)NC1CC2(C=C(Br)C(=O)C(Br)=C2)OC1=O (stereo not drawn) | 9.21 µM |
| O=C(O)C(O)C(O)C(=O)O (stereo not drawn) | > 100 µM |
| COC(=O)CCC1=C(CC(=O)OC)C(C)(OC)N=C1NC(=O)OCc1ccccc1 (stereo not drawn) | > 100 µM |
| Cc1ccc(/C=N/n2c(-c3ccc(C)cc3)n[nH]c2=O)cc1 | > 100 µM |
| COC12CCC(=O)C=C1c1ccccc1N2C(C)=O (stereo not drawn) | > 100 µM |
| COc1ccc2c(=O)cc(-c3ccccc3)[nH]c2c1 | > 100 µM |
| c1cc2c(s1)-c1sccc1C21OCCO1 | > 100 µM |
